B1: tRNA (parent)
chain: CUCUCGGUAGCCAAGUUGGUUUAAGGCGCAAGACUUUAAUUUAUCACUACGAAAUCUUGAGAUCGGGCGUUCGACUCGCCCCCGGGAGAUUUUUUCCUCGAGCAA

variants of: B1; assay: nonsense suppression (GFP-seq) (ratio to wild type); higher = more function; SUP4oc tRNA, yeast GFP reporter sort-seq
Fewer inactive variants are shown than the library holds.
ENDPOINT: nonsense suppression

Known nonsense suppression results, listed for orientation:
# VARIANT DESCRIPTION, RESULT
records = [
    ("U17C C75A G88A", "≤ 0.026"),
    ("A24C G25U", "≤ 0.026"),
    ("G15C G26U U57C G78C", "≤ 0.026"),
]

For each of the variants below, note its nonsense suppression.
1. U4C U35C G69C
2. C3U U20A G26A

Output:
1: ≤ 0.026; 2: ≤ 0.026

For each of the variants below, note its nonsense suppression.
1. U17C A30G A31G
2. U4G A31U
3. U16C U22C G61C
4. G10C G15U A33U

Output:
1. 0.0827
2. 0.0387
3. 0.207
4. ≤ 0.026

For each of the variants below, note its nonsense suppression.
1. G61C C77U
2. U21C G26U G67A C80G
3. U17A A23C C68G
4. U2C U20C A24U
5. C1G C3G G25A C27U

Output:
0.0267
≤ 0.026
≤ 0.026
≤ 0.026
≤ 0.026

For each of the variants below, note its nonsense suppression.
1. G61C G69C C79G G84C
2. G84A A87G
3. U16C C68A G88U
4. G25U U63C C79A
5. G66C G78A
6. U20C G78U
7. G69U C72G

Output:
≤ 0.026
0.157
≤ 0.026
≤ 0.026
0.0452
0.0456
≤ 0.026
